Values were extracted from PubChem BioAssay (NCI).

- Tested on: SNB-19 CNS
- testMethodNotes: NCI tumour cell line growth inhibition, 48 h
// GI50 lookup, one value per entry

compound	GI50
CC1(C)N=C(N)N=C(N)N1c1cccc(CCCCc2ccccc2)c1	907 nM
Cc1ccc2c(Nc3cccc(Cl)c3F)ncc(NC(=O)c3csc4c(N)ncnc34)c2c1	> 100000 nM
C[C@H]1[C@H](C)CC[C@]2(C(=O)O)CC[C@]3(C)C(=CC[C@@H]4[C@@]5(C)CC[C@H](OC(=O)/C=C/c6ccc(O)cc6)C(C)(C)[C@@H]5CC[C@]43C)[C@H]12	2440 nM
ClC1=NC(Cl)C(Cl)=N/C1=N\c1ncn[nH]1 (centres undefined)	11800 nM

----------
- System: TK-10 renal
- testMethodNotes: NCI tumour cell line growth inhibition, 48 h
// TGI lookup, one value per entry

compound	TGI
O=C(O)C[O][Sb][O]CC(=O)O	> 100 µM
C[C@]12CC[C@H](O)C=C1CC[C@@H]1[C@@H]2CC[C@]2(C)C(=N/O)/C(=C/c3ccncc3)C[C@@H]12	38.3 µM
O=C(OCC1OC(OC(=O)c2cc(O)c(O)c(OC(=O)c3cc(O)c(O)c(O)c3)c2)C(OC(=O)c2cc(O)c(O)c(OC(=O)c3cc(O)c(O)c(O)c3)c2)C(OC(=O)c2cc(O)c(O)c(OC(=O)c3cc(O)c(O)c(O)c3)c2)C1OC(=O)c1cc(O)c(O)c(OC(=O)c2cc(O)c(O)c(O)c2)c1)c1cc(O)c(O)c(OC(=O)c2cc(O)c(O)c(O)c2)c1 (stereo not given)	28.2 µM
O=C1c2ccccc2C(=O)c2c1ccc(C(=O)O)c2-c1ccc2ccccc2c1	> 100 µM
CC(C)=C[C@@H]1C[C@H](C)c2c(O)cc(C)c3c2C1=C(C)C(=O)C3=O	45.9 µM
COc1ccc2[nH]c(=O)c(/C=C/C(=O)/C=C/c3ccc(O)c(OC)c3)cc2c1	5.72 µM
CC(C)c1c(O[Si](C(C)C)(C(C)C)C(C)C)c2c3c(ccc4c3c1OC4(C)C)C(C)CC2 (stereo not given)	> 100 µM
N#CSCc1c(Cl)cccc1Cl	> 29.2 µM
COc1ccc(C2CC(=O)CC(c3ccc(OC)cc3)C23C(=O)NC(=S)NC3=O)cc1 (stereo not given)	> 100 µM
COc1ccccc1N1C(=O)CS(=O)(=O)C1c1cccc(Oc2ccccc2)c1 (stereo not given)	33.8 µM
COc1ccc(C2=Nn3c(nc4sc(-c5ccccc5)cc4c3=O)SC2)cc1	> 100 µM
O=C(O)Cc1cccc2c1OC(c1ccccc1)C(C(=O)c1ccccc1)C2=O (stereo not given)	79.9 µM
O=c1oc2ccc(Cl)cc2c(=O)n1-c1cc(C(F)(F)F)cc(C(F)(F)F)c1	11 µM
Cc1ccc2c(c1)SC(c1cc3c(cc1Br)OCO3)S2 (stereo not given)	> 31.6 µM
NNc1ccccc1Cl	> 100 µM
Cc1ccccc1-c1c(N)nc(N)nc1C(=O)Nc1nccs1	> 100 µM
N#CCN1CCOCCOCCN(CC#N)CCOCCOCC1	> 100 µM
NC(CSc1nc2ccccn2c1[N+](=O)[O-])C(=O)O (stereo not given)	> 100 µM
Cc1cc2c3ccccc3ccc2[n+]2ccccc12	> 86.8 µM
O=C1Nc2cc([N+](=O)[O-])ccc2C(=O)N2CCC[C@@H]12	> 100 µM
